Documented ED50 across a set of compounds
- Organism: Rattus norvegicus
- experiment description: Effective peroral dose in rat catalepsy study
- Assay type: functional
- run parameters: po
property: ED50

1. Nc1nc(N2CCN(Cc3cc4ccccc4o3)CC2)nc2nc(-c3ccco3)nn12 ... > 3 mg/kg
2. Cc1ccc2nc(Cl)c(CN3CCN(c4nc(N)n5nc(-c6ccco6)nc5n4)CC3)cc2c1 ... > 10 mg/kg
3. Cc1ncccc1CN1CCN(c2nc(N)n3nc(-c4ccco4)nc3n2)CC1 ... > 3 mg/kg
4. Nc1nc(N2CCN(Cc3cc4ccccc4nc3Cl)CC2)nc2nc(-c3ccco3)nn12 ... > 3 mg/kg
5. Nc1nc(NCCc2ccc(O)cc2)nc2nc(-c3ccco3)nn12 ... > 10 mg/kg

Value source: ChEMBL document CHEMBL1137209
